# Experimental details: yeast display, Sf9 membrane polyspecificity reagent, FACS + sequencing; frameworks hold sequencing errors
Measured parameter: polyreactivity (PSR sort gate)

QVQLVESGGGLVQAGGSLRLSCAASGRIFGKYVMGWYRQAPGKERELVAAISRSGGSTSYADSVKGRFTISRDNAKNTVYLQMNSLKPEDTAVYYCAASPAGYLAPRGYYWGQGTQVTVSS : high polyreactivity
QVQLVESGGGLVQAGGSLRLSCAASGSIFSGYAMGWYRQAPGKEREFVAAISSSGGRTYYADSVKGRFTISRDNAKNTVYLQMNSLKPEDTAVYYCNAVSSYGYDYWGQGTQVTVSS : high polyreactivity
QVQLQESGGGLVQAGGSLRLSCAASGYNSHADEMGWYRQAPGKEHELVASISNGGSTNYADSVKGRFTISRDNANNTVYLQMNSLKSEDTAVYYCADWTGEVDIHYYWGQGTQVTVSS : low polyreactivity
QVQLLESGGGLVQAGGSLRLSCAASGSIFEGNGMGWYRQAPGKERELVAAITFRSGSTYYADSVKGRFTISRDNAKNTVYLQMNSLKPEDTAVYYCAADEYYEVSAYDYWGQGTQVTVSS : low polyreactivity

Continue with the next sequence.
Tell me measured polyreactivity (PSR sort gate) for QDQIVESGGGLVQAGGSLRLSCAASGSIIWGNALGWYSQAPGKERELVAAISWGGGRTYYADSVKGRFTLSRDNAKNTVYLQMNSLKPEDTAVYYCNTRYPYVVSTGYDYWGQGTQVTVSS please.
high polyreactivity

* * *

# Experimental details: yeast display, Sf9 membrane polyspecificity reagent, FACS + sequencing; frameworks hold sequencing errors
Measured parameter: polyreactivity (PSR sort gate)

QVQLVESGGGLVQAGGSLRLSCAASGLIFKYYAMGWYREAPGKERELVATITRGGGSTYYADSVKGRFTISRDNAKNTVYLQMNSLKPEDTAVYYCAADYWYVYPRYNPGDYWGQGTQVTVSS : high polyreactivity
QVQLVESGGGLVQAGGSLRLSCAASGNTFFIYAMGWYRPAPGKERELVAAITYSGGGTYYADSVKGRFTISRDNAKNTVYLQMYSLKPDDTAVYYCAADFYTGWSYIYDYWGHGTQVTVSS : high polyreactivity

* * *

# Experimental details: yeast display, Sf9 membrane polyspecificity reagent, FACS + sequencing; frameworks hold sequencing errors
Measured parameter: polyreactivity (PSR sort gate)

QVQLVESGGGLVQAGGSLRLSCAASGFTFKFNTMGWYRQAPGKERELVAAISWRGGDTSYADSVKGRFTISRDNAKNTVYLQMNSLKPEDTAVYYCAASPRYPYWYDYWGQGTQVTVSS : low polyreactivity
QVQLVESGGGLVQAGGSLRLSSAASGRTFQYYAMGWYRQAPGKERELVAAIDSSGGSTYYADSVKGRFTISRDNAKNTVYLQMNSLKPEDTAVYYCIAGRYRYYYYGYDYWGQGTQVTVSS : high polyreactivity
QVQLVESGGGLVQAGGSLRLSCAASGLTLGSYAMGWYRQAPGKERELVAAISRRSGRTYYADSVKGRFTISRDNAKNTVYLKMNSLKPEDTAVDYCNRGYTAQVYTEFDYWGQGTQVTVSS : low polyreactivity
QVQLVESGGGLVQAGGSLRITCAASGIIFGSYAMGWYRQAPGKETELVAAISTSGGSTYYADSVKGRFTISRDNAKNTVYLQMNSLKPEDTAVYYCNKAGVYRDSSRYNYWGQGTQVTVSS : high polyreactivity
QVQLVESAGGLVQAGGSLSLSCAASGSTFAGYVMGWYRQAPGKERELVAAISRSGGSTYYADSVKGRFTISRDNAKNTVYLQMNSLKPEDTAVYYCAARNSPGLPGDYWGQGTQVTVSS : high polyreactivity
QVQLVESGGGLVQAGGSLRLSCAASGRTFSSYAMGWYRQAPGKEREFVAAISRSGASTRYADSVKGRFTISRDNAKNTVYLQMNSLKPEDTAVYYCAAVWPDVRGYDYWGQGTQVTVSS : high polyreactivity
QVQLVESGGGLVQAGGSLRLSCAASGIIFGEYPMGWYRQAPGKERELVAAISWSGGSTYYADSVKGRFTISRDNAKNTVYLQMNSLKPEDTAVYYCNPLPDIVIGGIIGYDYWGQGTQVTVSS : high polyreactivity
QVQLVESGGGLVQAGCSLRLSCAASGSTFPYNAMGWYRQAPGKERELVATIDATGGSTSYADSVKGRFTISRDNAKNTVYLQMNSLKPEDTAVYYCAAVAYILYFYAYYLTYDYWGQGTQVTVSS : low polyreactivity

Continue with the next sequence.
Tell me measured polyreactivity (PSR sort gate) for QVQLVESGGGLVQAGGSLRLSCAASGRTFWKYVMGWYRQAPGKERELVAVISRPAGSTYYADSVKGRFTISRDNAKNTVYLQMNSLKPEDTAVYYCAKRPKNKPVLGDYDQWGQGTQVTVSS please.
low polyreactivity

Provenance of the data: the nanobody polyreactivity screen of Harvey et al. (2022)
